Test Target: NRP-1 (Homo sapiens)
Sequence (O14786 22-923): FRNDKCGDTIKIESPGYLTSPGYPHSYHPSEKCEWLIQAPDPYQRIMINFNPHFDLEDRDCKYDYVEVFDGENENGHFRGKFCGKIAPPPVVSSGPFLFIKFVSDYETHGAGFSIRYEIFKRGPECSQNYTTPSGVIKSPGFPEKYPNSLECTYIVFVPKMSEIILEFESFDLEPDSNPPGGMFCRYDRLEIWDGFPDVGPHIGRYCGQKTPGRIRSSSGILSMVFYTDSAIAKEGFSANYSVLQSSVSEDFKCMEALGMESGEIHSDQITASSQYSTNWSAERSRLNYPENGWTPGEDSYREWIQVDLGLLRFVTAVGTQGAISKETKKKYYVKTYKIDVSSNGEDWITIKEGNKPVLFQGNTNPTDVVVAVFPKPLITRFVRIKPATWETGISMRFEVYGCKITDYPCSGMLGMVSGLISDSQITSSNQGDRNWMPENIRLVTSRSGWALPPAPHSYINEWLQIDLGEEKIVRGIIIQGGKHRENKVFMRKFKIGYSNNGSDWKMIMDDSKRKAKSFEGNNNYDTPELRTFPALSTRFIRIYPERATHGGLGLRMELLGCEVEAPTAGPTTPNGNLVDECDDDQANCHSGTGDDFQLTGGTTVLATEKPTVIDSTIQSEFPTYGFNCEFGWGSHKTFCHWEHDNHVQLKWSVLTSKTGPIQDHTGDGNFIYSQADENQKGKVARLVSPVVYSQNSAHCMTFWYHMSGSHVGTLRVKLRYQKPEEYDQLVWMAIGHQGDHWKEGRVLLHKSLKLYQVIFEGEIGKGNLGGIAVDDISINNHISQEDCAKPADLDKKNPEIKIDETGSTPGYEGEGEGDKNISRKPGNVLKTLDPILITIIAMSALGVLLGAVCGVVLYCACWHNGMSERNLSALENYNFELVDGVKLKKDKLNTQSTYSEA
Experiment Summary: NRP-1 binding assay: inhibition of (bt)-VEGF-A165 binding to immobilized NRP-1, chemiluminescent detection
Reported Conditions: peptides of formula (I); chemiluminescence binding assay; read-out: IC50
Where a SMILES comes first, the peptide text is derived from it.
Observed Property: IC50 (nM)
State just the number; it will be interpreted in nM.

Worked examples, 3 molecules total:
* N=C(N)NCCCC[C@H](N)C(=O)NCCCC[C@H](NC(=O)[C@@H](N)CS)C(=O)N[C@@H](CCN)C(=O)N1C2CCCCC2C[C@H]1C(=O)N[C@@H](CCCNC(=N)N)C(=O)O (stereo partly drawn) [H-Cys-Lys(hArg)-Dab-Oic-Arg-OH] (HELM PEPTIDE1{C.K.[Dab].[O=C([C@@H]1CC2CCCCC2N1[*:1])[*:2]].R}|PEPTIDE2{[N=C(N)NCCCC[C@H](N)C(=O)[*:2]]}$PEPTIDE1,PEPTIDE2,2:R3-1:R2$$$V2.0) | 50
* N=C(N)NCCCC[C@H](NC(=O)[C@@H](N)CS)C(=O)NCCCC[C@H](N)C(=O)N[C@@H](CCN)C(=O)N1C2CCCCC2C[C@H]1C(=O)N[C@@H](CCCNC(=N)N)C(=O)O (stereo partly drawn) [H-Lys(Cys-hArg)-Dab-Oic-Arg-OH] (HELM PEPTIDE1{K.[Dab].[O=C([C@@H]1CC2CCCCC2N1[*:1])[*:2]].R}|PEPTIDE2{C.[N=C(N)NCCCC[C@H](N[*:1])C(=O)[*:2]]}$PEPTIDE1,PEPTIDE2,1:R3-2:R2$$$V2.0) | 40
* N=C(N)NCCCC[C@H](NC(=O)[C@@H](N)CS)C(=O)NCCCC[C@H](N)C(=O)N[C@@H](CCN)C(=O)N1CC=C[C@H]1C(=O)N[C@@H](CCCNC(=N)N)C(=O)O [H-Lys(Cys-hArg)-Dab-ΔPro-Arg-OH] (HELM PEPTIDE1{K.[Dab].[O=C([C@@H]1C=CCN1[*:1])[*:2]].R}|PEPTIDE2{C.[N=C(N)NCCCC[C@H](N[*:1])C(=O)[*:2]]}$PEPTIDE1,PEPTIDE2,1:R3-2:R2$$$V2.0) | 60

Problem: Name the recorded IC50 of N=C(N)NCCCC[C@H](N)C(=O)NCCCC[C@H](NC(=O)[C@@H](N)CS)C(=O)N[C@@H](CCN)C(=O)N1CC=C[C@H]1C(=O)N[C@@H](CCCNC(=N)N)C(=O)O [H-Cys-Lys(hArg)-Dab-ΔPro-Arg-OH] (HELM PEPTIDE1{C.K.[Dab].[O=C([C@@H]1C=CCN1[*:1])[*:2]].R}|PEPTIDE2{[N=C(N)NCCCC[C@H](N)C(=O)[*:2]]}$PEPTIDE1,PEPTIDE2,2:R3-1:R2$$$V2.0) , assay system NRP-1 (Homo sapiens).
Solution: 70
